Assay: Peptide stability in simulated intestinal fluid (SIF)
Format: in vitro ADME
Settings: pig, simulated intestinal fluid; SIF, 1 h, pH 6.8, pancreatin, 37° C., 10 μM
Description: SGF and SIF were prepared based on the United States Pharmacopeia specifications (Test Solutions, United States Pharmacopeia 35, NF 30, 2012). SGF was prepared by dissolving sodium chloride (0.2 g) in 50 mL of water. A volume of 0.7 mL of 10 M HCl was added to adjust the pH of the solution to 1.2 and the volume made up to 100 mL with water. 64 mg porcine pepsin (P7125, Sigma Aldrich) was gently dissolved into 20 mL preheated (37° C.) solution (3.2 g/L) immediately prior to the incubation. […]
*1 amine or outer side, *2 acyl side, *3 side chain or, on linkers, in order; H or OH if unused. Where a SMILES comes first, the peptide text is derived from it. Bridges are numbered along the chain shown (N, C = ends). [ ]: non-standard residue; d: D form. 2Nal = N[C@@H](Cc1ccc2ccccc2c1)C(=O)O; AEF = NCCOc1ccc(C[C@H](N)C(=O)O)cc1; X1 = O=C(Cc1ccc(CN[*:1])cc1)[*:2]; 3Pal = N[C@@H](Cc1cccnc1)C(=O)O; αMeL = CC(C)C[C@](C)(N)C(=O)O; Dab = NCC[C@H](N)C(=O)O
measurement.label: remaining at 1 h, 10 µM (%)
Quick note: give the figure in %, leave out the unit.

Sample records with remaining at 1 h, 10 µM:
{"columns": ["molecule", "u", "remaining at 1 h, 10 µM"],
 "data": [
  ["CNC(=O)[C@H](Cc1cccnc1)NC(=O)[C@H](CCN)NC(=O)[C@@H]1CCC(=O)NCc2ccc(cc2)CC(=O)N[C@@H](CO)C(=O)N[C@H]2CCC(=O)NCC[C@H](NC(=O)[C@H](CCC(=O)N(C)C)NC(=O)[C@H](Cc3c[nH]c4ccccc34)NC2=O)C(=O)N[C@@H](Cc2ccc(OCCN)cc2)C(=O)N[C@@H](Cc2ccc3ccccc3c2)C(=O)N[C@@](C)(CC(C)C)C(=O)N1 [Compound 30] ([X1]SEWE(NMe2)[Dab][AEF][2Nal][αMeL]E[Dab][3Pal]-NHMe; lactam 3-6, N-10)", "%", 94],
  ["CNC(=O)[C@H](Cc1cccnc1)NC(=O)[C@@H](CO)NC(=O)[C@@H]1CCC(=O)NCc2ccc(cc2)CC(=O)N[C@@H](CO)C(=O)N[C@H]2CCC(=O)NCC[C@H](NC(=O)[C@H](CCC(N)=O)NC(=O)[C@H](Cc3c[nH]c4ccccc34)NC2=O)C(=O)N[C@@H](Cc2ccc(OCCN)cc2)C(=O)N[C@@H](Cc2ccc3ccccc3c2)C(=O)N[C@@](C)(CC(C)C)C(=O)N1", "%", 82],
  ["CC(C)C[C@@H]1NC(=O)[C@H](Cc2c[nH]c3ccccc23)NC(=O)[C@H](Cc2c[nH]c3ccccc23)NC(=O)[C@@H]2CSCC(=O)CSC[C@H](NC(=O)[C@H](CO)NC(=O)[C@@H](NC(=O)[C@@H](N)CC(=O)O)CSCC(=O)CSC[C@@H](C(=O)N[C@@H](CCCNC(=N)N)C(N)=O)NC1=O)C(=O)N[C@@H](Cc1c[nH]c3ccccc13)C(=O)N[C@@H](CCC(N)=O)C(=O)N2 (single isomer, unassigned) [I3 (isomer 3), H-DC(1a)SC(2a)WQC(2a)WWLC(1a)R-[NH2], reference compound]", "%", 0],
  ["CNC(=O)[C@H](Cc1cccnc1)NC(=O)[C@H](CCN)NC(=O)[C@@H]1CCC(=O)NCc2ccc(cc2)CC(=O)N[C@@H](C)C(=O)N[C@H]2CCC(=O)NCC[C@H](NC(=O)[C@H](CCC(N)=O)NC(=O)[C@H](Cc3c[nH]c4ccccc34)NC2=O)C(=O)N[C@@H](Cc2c[nH]c3c(F)cccc23)C(=O)N[C@@H](Cc2ccc3ccccc3c2)C(=O)NC(C)(C)C(=O)N1", "%", 97],
  ["CSCC[C@H](NC(=O)[C@@H]1CSCC(=O)CSC[C@H](NC(=O)[C@@H](N)CCC(=O)O)C(=O)N[C@@H](Cc2c[nH]c3ccccc23)C(=O)N[C@@H](CC(C)C)C(=O)N[C@H]2CSCC(=O)CSC[C@H](NC(=O)[C@H](CC(N)=O)NC(=O)[C@H](CCCNC(=N)N)NC(=O)[C@H](Cc3ccc(O)cc3)NC(=O)[C@H](Cc3ccc(O)cc3)NC2=O)C(=O)N[C@@H](CC(N)=O)C(=O)N1)C(N)=O (single isomer, unassigned) [I4 (isomer 3), H-EC(4a)WLC(5a)YYRNC(5a)NC(4a)M-[NH2], reference compound]", "%", 0]
]}

Challenge: Fill in remaining at 1 h, 10 µM for record CNC(=O)CC[C@@H]1NC(=O)[C@H](Cc2c[nH]c3ccccc23)NC(=O)[C@@H]2CCC(=O)NCC[C@H](NC1=O)C(=O)N[C@@H](Cc1ccc(OCCN)cc1)C(=O)N[C@@H](Cc1ccc3ccccc3c1)C(=O)N[C@@](C)(CC(C)C)C(=O)N[C@H](C(=O)N[C@@H](CCN)C(=O)N[C@@H](Cc1cccnc1)C(=O)NC)CCC(=O)NCc1ccc(cc1)CC(=O)N[C@@H](CO)C(=O)N2 [Compound 29] ([X1]SEWE(NHMe)[Dab][AEF][2Nal][αMeL]E[Dab][3Pal]-NHMe; lactam 3-6, N-10)
Response given: 91

Challenge: Look up remaining at 1 h, 10 µM of CNC(=O)[C@H](Cc1cccnc1)NC(=O)[C@H](CCN)NC(=O)[C@@H]1CCC(=O)NCc2ccc(cc2)CC(=O)N[C@@H](CO)C(=O)N[C@H]2CCC(=O)NCC[C@H](NC(=O)[C@H](CCNC(C)=O)NC(=O)[C@H](Cc3c[nH]c4ccccc34)NC2=O)C(=O)N[C@@H](Cc2ccc(OCCN)cc2)C(=O)N[C@@H](Cc2ccc3ccccc3c2)C(=O)N[C@@](C)(CC(C)C)C(=O)N1 [Compound 25] ([X1]SEW[Dab](Ac)[Dab][AEF][2Nal][αMeL]E[Dab][3Pal]-NHMe; lactam 3-6, N-10) and report it.
Response given: 88

Challenge: State its remaining at 1 h, 10 µM for this molecule: CNC(=O)[C@H](Cc1cccnc1)NC(=O)[C@H](CO)NC(=O)[C@@H]1CCC(=O)NCc2ccc(cc2)CC(=O)N[C@@H](CO)C(=O)N[C@H]2CCC(=O)NCC[C@H](NC(=O)[C@H](CCC(N)=O)NC(=O)[C@H](Cc3c[nH]c4ccccc34)NC2=O)C(=O)N[C@@H](Cc2ccc(OCCN)cc2)C(=O)N[C@@H](Cc2ccc3ccccc3c2)C(=O)N[C@@](C)(CC(C)C)C(=O)N1 [Compound 31] ([X1]SEWQ[Dab][AEF][2Nal][αMeL]ES[3Pal]-NHMe; lactam 3-6, N-10)
Response given: 77

Challenge: Please list remaining at 1 h, 10 µM recorded for the molecule `CC(C)C[C@]1(C)NC(=O)[C@H](Cc2ccc3ccccc3c2)NC(=O)[C@H](Cc2ccc(OCCN)cc2)NC(=O)[C@@H]2CCNC(=O)CC[C@H](NC(=O)[C@H](CO)NC(=O)Cc3ccc(cc3)CNC(=O)CC[C@@H](C(=O)N[C@@H](CCN)C(=O)NCCCCc3cccnc3)NC1=O)C(=O)N[C@@H](Cc1c[nH]c3ccccc13)C(=O)N[C@@H](CCC(N)=O)C(=O)N2`
Response given: 97

###

Assay: Peptide stability in simulated gastric fluid (SGF)
Type: in vitro ADME
Details: pig, 1 h, pH 1.2, pepsin, 37° C.
*1 amine or outer side, *2 acyl side, *3 side chain or, on linkers, in order; H or OH if unused. Where a SMILES comes first, the peptide text is derived from it. Bridges are numbered along the chain shown (N, C = ends). [ ]: non-standard residue; d: D form. 2Nal = N[C@@H](Cc1ccc2ccccc2c1)C(=O)O; AEF = NCCOc1ccc(C[C@H](N)C(=O)O)cc1; X1 = O=C(Cc1ccc(CN[*:1])cc1)[*:2]; 3Pal = N[C@@H](Cc1cccnc1)C(=O)O; αMeL = CC(C)C[C@](C)(N)C(=O)O; Orn = NCCC[C@H](N)C(=O)O; Dab = NCC[C@H](N)C(=O)O
measurement.label: remaining at 1 h, 10 µM (%)
Numeric answer only, unit % assumed.

Challenge: Return reported remaining at 1 h, 10 µM. Input molecule: CNC(=O)[C@H](Cc1cccnc1)NC(=O)[C@H](CCN)NC(=O)[C@@H]1CCC(=O)NCc2ccc(cc2)CC(=O)N[C@@H](CO)C(=O)N[C@H]2CCC(=O)NCC[C@H](NC(=O)[C@H](CCCN)NC(=O)[C@H](Cc3c[nH]c4ccccc34)NC2=O)C(=O)N[C@@H](Cc2ccc(OCCN)cc2)C(=O)N[C@@H](Cc2ccc3ccccc3c2)C(=O)N[C@@](C)(CC(C)C)C(=O)N1 [Compound 28] ([X1]SEW[Orn][Dab][AEF][2Nal][αMeL]E[Dab][3Pal]-NHMe; lactam 3-6, N-10)
Response given: 100

Challenge: Specify measured remaining at 1 h, 10 µM for `CC(C)C[C@]1(C)NC(=O)[C@H](Cc2ccc3ccccc3c2)NC(=O)[C@H](Cc2ccc(OCCN)cc2)NC(=O)[C@@H]2CCNC(=O)CC[C@H](NC(=O)[C@H](CO)NC(=O)Cc3ccc(cc3)CNC(=O)CC[C@@H](C(=O)N[C@@H](CCN)C(=O)N[C@@H](Cc3cn(C)cn3)C(N)=O)NC1=O)C(=O)N[C@@H](Cc1c[nH]c3ccccc13)C(=O)N[C@@H](CCC(N)=O)C(=O)N2` .
Response given: 93

Challenge: Please supply the value of reported remaining at 1 h, 10 µM for the item `CNC(=O)[C@H](Cc1cccnc1)NC(=O)[C@@H](CO)NC(=O)[C@@H]1CCC(=O)NCc2ccc(cc2)CC(=O)N[C@@H](CO)C(=O)N[C@H]2CCC(=O)NCC[C@H](NC(=O)[C@H](CCC(N)=O)NC(=O)[C@H](Cc3c[nH]c4ccccc34)NC2=O)C(=O)N[C@@H](Cc2ccc(OCCN)cc2)C(=O)N[C@@H](Cc2ccc3ccccc3c2)C(=O)N[C@@](C)(CC(C)C)C(=O)N1`
Response given: 100
